Origin of values: patent US9603834B2

Biological target: CCR2 (Homo sapiens (Human), UniProt P41597)
Sequence (P41597 whole entry, species assumed): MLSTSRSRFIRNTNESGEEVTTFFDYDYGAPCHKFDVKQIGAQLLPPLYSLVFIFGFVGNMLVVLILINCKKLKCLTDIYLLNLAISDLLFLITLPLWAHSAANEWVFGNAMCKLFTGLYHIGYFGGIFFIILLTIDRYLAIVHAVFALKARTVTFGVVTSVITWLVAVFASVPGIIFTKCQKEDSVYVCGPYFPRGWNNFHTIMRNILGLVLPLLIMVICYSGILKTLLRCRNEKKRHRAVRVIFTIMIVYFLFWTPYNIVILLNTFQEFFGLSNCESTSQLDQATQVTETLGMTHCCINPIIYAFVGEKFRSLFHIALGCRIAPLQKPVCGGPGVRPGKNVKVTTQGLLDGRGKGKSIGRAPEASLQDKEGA
Assay: Calcium activity on FLIPR Tetra in HEK-Gqi5 cells stably expressing CCR2
Conditions: FLIPR Tetra calcium assay
IC50 under 0.3 µM gets class 1, anything at or over 0.3 µM gets class 0.

- compound smiles: "O=S(=O)(Nc1ccc(Cl)cc1NS(=O)(=O)c1cccs1)c1cc2ccccc2o1"
  cat: "class 1"
- compound smiles: "O=S(=O)(Nc1cc(Cl)c(Cl)cc1NS(=O)(=O)c1cccs1)c1cccc(Cl)c1"
  cat: "class 0"
- compound smiles: "Cn1ccc(S(=O)(=O)Nc2ccc(Cl)cc2NS(=O)(=O)c2cc3ccccc3o2)n1"
  cat: "class 1"
- compound smiles: "O=S(=O)(Nc1cc(Cl)ccc1NS(=O)(=O)c1cccs1)c1cc2ccccc2o1"
  cat: "class 1"

Consider the record given below.
*Q* Does the reported IC50 of the following molecule sit strictly below 0.3 µM? `O=S(=O)(Nc1cc(Cl)c(Cl)cc1NS(=O)(=O)c1cccs1)c1cc2ccccc2o1`
*A* class 1

----------
Molecular target: UniProtKB P41597
Experiment: Calcium activity on FLIPR Tetra in HEK-Gqi5 cells stably expressing CCR2
Type: cell-based
Settings: FLIPR Tetra calcium assay
For each record, write down the corresponding CCR2 % Antagonism.
Numbers only, in %.

Answer for every listed entry: what is its CCR2 % Antagonism? The entries follow.
1. Cn1ccc(S(=O)(=O)Nc2ccc(Cl)cc2NS(=O)(=O)c2cc3ccccc3o2)n1
2. O=S(=O)(Nc1cccnc1NS(=O)(=O)c1cccs1)c1ccc(Cl)c(C(F)(F)F)c1
3. O=S(=O)(Nc1cc(Cl)c(Cl)cc1NS(=O)(=O)c1cccs1)c1cccc(C(F)(F)F)c1
4. O=S(=O)(Nc1cc(Cl)c(Cl)cc1NS(=O)(=O)c1ccccc1F)c1cccs1

*A*
[96, 85, 88, 67]

----------
Biological target: CCR2 (Homo sapiens (Human), UniProt P41597)
Assay: Calcium activity on FLIPR Tetra in HEK-Gqi5 cells stably expressing CCR2
Conditions: FLIPR Tetra calcium assay
For each record, write down the corresponding pIC50.
Numbers only, as −log10 of the molar value.

Check out these entries, answers already filled in.
- compound smiles: "O=S(=O)(Nc1cc(Cl)c(Cl)cc1NS(=O)(=O)c1cccs1)c1cccc(C(F)(F)F)c1"
  measurement label: "pIC50"
  measured value: 6.51
- compound smiles: "Cc1ccc(S(=O)(=O)Nc2ccc(Cl)cc2NS(=O)(=O)c2cc3ccccc3o2)s1"
  measurement label: "pIC50"
  measured value: 6.47
- compound smiles: "Cc1nn(C)c(Cl)c1S(=O)(=O)Nc1ccc(Cl)cc1NS(=O)(=O)c1cc2ccccc2o1"
  measurement label: "pIC50"
  measured value: 6.53
- compound smiles: "O=S(=O)(Nc1cc(Cl)c(Cl)cc1NS(=O)(=O)c1cccc(Cl)c1F)c1cccs1"
  measurement label: "pIC50"
  measured value: 6.66
- compound smiles: "O=S(=O)(Nc1cc(Cl)ccc1NS(=O)(=O)c1c(Cl)cccc1Cl)c1cc2ccccc2o1"
  measurement label: "pIC50"
  measured value: 6.32
- compound smiles: "O=S(=O)(Nc1cc(Cl)c(Cl)cc1NS(=O)(=O)c1ccc(F)cc1F)c1cccs1"
  measurement label: "pIC50"
  measured value: 6.35

Answer for every listed entry: what is its pIC50? The entries follow.
1. Cc1cc(S(=O)(=O)Nc2cc(Cl)c(Cl)cc2NS(=O)(=O)c2cccs2)ccc1Br
2. O=S(=O)(Nc1cc(Cl)c(Cl)cc1NS(=O)(=O)c1cc2ccccc2s1)c1cccs1
3. Cc1n[nH]c(C)c1S(=O)(=O)Nc1ccc(Cl)cc1NS(=O)(=O)c1cc2ccccc2o1
4. O=S(=O)(Nc1cc(Cl)c(Cl)cc1NS(=O)(=O)c1ccc(Cl)s1)c1cccs1
5. O=S(=O)(Nc1cc(Cl)c(Cl)cc1NS(=O)(=O)c1cccs1)c1ccc(F)c(C(F)(F)F)c1
6. Cc1ccc(S(=O)(=O)Nc2cc(Cl)c(Cl)cc2NS(=O)(=O)c2cccs2)o1
7. O=S(=O)(Nc1cc(Cl)ccc1NS(=O)(=O)c1c(F)cccc1F)c1cc2ccccc2o1
8. O=S(=O)(Nc1cc(Cl)c(Cl)cc1NS(=O)(=O)c1cccs1)c1ccc(F)cc1

*A*
1: 6.33; 2: 6.31; 3: 6.74; 4: 6.58; 5: 6.36; 6: 6.51; 7: 6.82; 8: 6.36
